test: Single-dose nebulized nose-only inhalation PK in healthy rats; format: in vivo, rat; details: male, Sprague Dawley, rat, in vivo, inhaled or intranasal
What Plasma Cmax was measured for each of the following?
Give bare numbers, in ng/mL.

Worked set:
CCCCCCCCCCCC(=O)NCCNC1(C)CC(OC2C(Oc3c4cc5cc3Oc3ccc(cc3Cl)C(O)C3NC(=O)C(NC(=O)C5NC(=O)C(CC(N)=O)NC(=O)C(NC(=O)C(CC(C)C)NC)C(O)c5ccc(c(Cl)c5)O4)c4ccc(O)c(c4)-c4c(O)cc(O)cc4C(C(=O)O)NC3=O)OC(CO)C(O)C2O)OC(C)C1O (stereo not shown) [RV62] ... 20
CCCCCCCCCCNC(=O)CNC1(C)CC(OC2C(Oc3c4cc5cc3Oc3ccc(cc3Cl)C(O)C3NC(=O)C(NC(=O)C5NC(=O)C(CC(N)=O)NC(=O)C(NC(=O)C(CC(C)C)NC)C(O)c5ccc(c(Cl)c5)O4)c4ccc(O)c(c4)-c4c(O)cc(O)cc4C(C(=O)O)NC3=O)OC(CO)C(O)C2O)OC(C)C1O (stereo not shown) [RV94] ... 140
CCCCCCCCCCNCCN[C@@]1(C)C[C@H](O[C@H]2[C@H](Oc3c4cc5cc3Oc3ccc(cc3Cl)[C@@H](O)[C@@H](NC(=O)[C@@H](CC(C)C)NC)C(=O)N[C@@H](CC(N)=O)C(=O)N[C@H]5C(=O)N[C@H]3C(=O)N[C@H](C(=O)N[C@H](C(=O)O)c5cc(O)cc(O)c5-c5cc3ccc5O)[C@H](O)c3ccc(c(Cl)c3)O4)O[C@H](CO)[C@@H](O)[C@@H]2O)O[C@@H](C)[C@H]1O [RV40, N-decylaminoethylvancomycin] ... 100

Now, please, on to the next compound.
# query: Plasma Cmax of entry CCCCCCCCCCCCCC(=O)OCCNC1(C)CC(OC2C(Oc3c4cc5cc3Oc3ccc(cc3Cl)C(O)C3NC(=O)C(NC(=O)C5NC(=O)C(CC(N)=O)NC(=O)C(NC(=O)C(CC(C)C)NC)C(O)c5ccc(c(Cl)c5)O4)c4ccc(O)c(c4)-c4c(O)cc(O)cc4C(C(=O)O)NC3=O)OC(CO)C(O)C2O)OC(C)C1O (stereo not shown) [RV88]
20

* * *

system: Streptococcus dysgalactiae; assay: Expanded panel broth microdilution MIC/MBC; assay type: cell-based; details: S. dysgalactiae; MBC on one organism
Hi there, I'd appreciate the recorded MIC:MBC for every entry that follows.
Give bare numbers.

CCCCCCCCCCNCCN[C@@]1(C)C[C@H](O[C@H]2[C@H](Oc3c4cc5cc3Oc3ccc(cc3Cl)[C@@H](O)[C@@H](NC(=O)[C@@H](CC(C)C)NC)C(=O)N[C@@H](CC(N)=O)C(=O)N[C@H]5C(=O)N[C@H]3C(=O)N[C@H](C(=O)N[C@H](C(=O)O)c5cc(O)cc(O)c5-c5cc3ccc5O)[C@H](O)c3ccc(c(Cl)c3)O4)O[C@H](CO)[C@@H](O)[C@@H]2O)O[C@@H](C)[C@H]1O [RV40, N-decylaminoethylvancomycin] ... 1
CCCCCCCCCCNCCN[C@@]1(C)C[C@H](O[C@H]2[C@H](Oc3c4cc5cc3Oc3ccc(cc3Cl)[C@@H](O)[C@@H](NC(=O)[C@@H](CC(C)C)NC)C(=O)N[C@@H](CC(N)=O)C(=O)N[C@H]5C(=O)N[C@H]3C(=O)N[C@H](C(=O)N[C@H](C(=O)O)c5cc(O)c(CNCP(=O)(O)O)c(O)c5-c5cc3ccc5O)[C@H](O)c3ccc(c(Cl)c3)O4)O[C@H](CO)[C@@H](O)[C@@H]2O)O[C@@H](C)[C@H]1O [Telavancin, telavancin] ... 4

In the following, a different compound is considered.
Using the record for CCCCCCCCCCNC(=O)CNC1(C)CC(OC2C(Oc3c4cc5cc3Oc3ccc(cc3Cl)C(O)C3NC(=O)C(NC(=O)C5NC(=O)C(CC(N)=O)NC(=O)C(NC(=O)C(CC(C)C)NC)C(O)c5ccc(c(Cl)c5)O4)c4ccc(O)c(c4)-c4c(O)cc(O)cc4C(C(=O)O)NC3=O)OC(CO)C(O)C2O)OC(C)C1O (stereo not drawn) [RV94] , report its MIC:MBC.
4

* * *

experiment: Single-dose nebulized nose-only inhalation PK in healthy rats; assay type: in vivo, rat; conditions: male, Sprague Dawley, rat, in vivo, inhaled or intranasal; single nebulized nose-only inhaled dose, healthy rats; read-out: Lung: Plasma Cmax ratio
METRIC: Kp
Numbers only.

# get_value(readout='Kp', item= CN[C@H](CC(C)C)C(=O)N[C@H]1C(=O)N[C@@H](CC(N)=O)C(=O)N[C@H]2C(=O)N[C@H]3C(=O)N[C@H](C(=O)N[C@H](C(=O)O)c4cc(O)cc(O)c4-c4cc3ccc4O)[C@H](O)c3ccc(c(Cl)c3)Oc3cc2cc(c3O[C@@H]2O[C@H](CO)[C@@H](O)[C@H](O)[C@H]2O[C@H]2C[C@](C)(N)[C@H](O)[C@H](C)O2)Oc2ccc(cc2Cl)[C@H]1O )
4

* * *

experiment: Single-dose nebulized nose-only inhalation PK in healthy rats; format: in vivo, rat; settings: male, Sprague Dawley, rat, in vivo, 120 h
METRIC: Drug lung level at 120 h (%)
Give bare numbers, in %.

State the recorded Drug lung level at 120 h for this entry: CCCCCCCCCCNC(=O)CNC1(C)CC(OC2C(Oc3c4cc5cc3Oc3ccc(cc3Cl)C(O)C3NC(=O)C(NC(=O)C5NC(=O)C(CC(N)=O)NC(=O)C(NC(=O)C(CC(C)C)NC)C(O)c5ccc(c(Cl)c5)O4)c4ccc(O)c(c4)-c4c(O)cc(O)cc4C(C(=O)O)NC3=O)OC(CO)C(O)C2O)OC(C)C1O (stereo not shown)
45

* * *

system: S. aureus; experiment: Expanded panel broth microdilution MIC/MBC; conditions: Staphylococcus aureus, read-out: MIC (median), S. aureus hVISA, 2 isolates
I'd appreciate it if you could supply MIC values for the items below.
Give bare numbers, in µg/mL.

Below, 2 molecules whose answers are already recorded.
CCCCCCCCCCNCCN[C@@]1(C)C[C@H](O[C@H]2[C@H](Oc3c4cc5cc3Oc3ccc(cc3Cl)[C@@H](O)[C@@H](NC(=O)[C@@H](CC(C)C)NC)C(=O)N[C@@H](CC(N)=O)C(=O)N[C@H]5C(=O)N[C@H]3C(=O)N[C@H](C(=O)N[C@H](C(=O)O)c5cc(O)c(CNCP(=O)(O)O)c(O)c5-c5cc3ccc5O)[C@H](O)c3ccc(c(Cl)c3)O4)O[C@H](CO)[C@@H](O)[C@@H]2O)O[C@@H](C)[C@H]1O ... 0.19
CCCCCCCCCCNCCN[C@@]1(C)C[C@H](O[C@H]2[C@H](Oc3c4cc5cc3Oc3ccc(cc3Cl)[C@@H](O)[C@@H](NC(=O)[C@@H](CC(C)C)NC)C(=O)N[C@@H](CC(N)=O)C(=O)N[C@H]5C(=O)N[C@H]3C(=O)N[C@H](C(=O)N[C@H](C(=O)O)c5cc(O)cc(O)c5-c5cc3ccc5O)[C@H](O)c3ccc(c(Cl)c3)O4)O[C@H](CO)[C@@H](O)[C@@H]2O)O[C@@H](C)[C@H]1O ... 0.023

Could you report MIC for every entry in the following list?
1. CN[C@H](CC(C)C)C(=O)N[C@H]1C(=O)N[C@@H](CC(N)=O)C(=O)N[C@H]2C(=O)N[C@H]3C(=O)N[C@H](C(=O)N[C@H](C(=O)O)c4cc(O)cc(O)c4-c4cc3ccc4O)[C@H](O)c3ccc(c(Cl)c3)Oc3cc2cc(c3O[C@@H]2O[C@H](CO)[C@@H](O)[C@H](O)[C@H]2O[C@H]2C[C@](C)(N)[C@H](O)[C@H](C)O2)Oc2ccc(cc2Cl)[C@H]1O
2. CCCCCCCCCCNC(=O)CNC1(C)CC(OC2C(Oc3c4cc5cc3Oc3ccc(cc3Cl)C(O)C3NC(=O)C(NC(=O)C5NC(=O)C(CC(N)=O)NC(=O)C(NC(=O)C(CC(C)C)NC)C(O)c5ccc(c(Cl)c5)O4)c4ccc(O)c(c4)-c4c(O)cc(O)cc4C(C(=O)O)NC3=O)OC(CO)C(O)C2O)OC(C)C1O (stereo not shown)

1. 1.5
2. 0.08

* * *

assay: Single-dose nebulized nose-only inhalation PK in healthy rats; assay type: in vivo, rat; conditions: male, Sprague Dawley, rat, in vivo, inhaled or intranasal
METRIC: Kp
One number for each entry.

Record request: Kp value, item CCCCCCCCCCNC(=O)CNC1(C)CC(OC2C(Oc3c4cc5cc3Oc3ccc(cc3Cl)C(O)C3NC(=O)C(NC(=O)C5NC(=O)C(CC(N)=O)NC(=O)C(NC(=O)C(CC(C)C)NC)C(O)c5ccc(c(Cl)c5)O4)c4ccc(O)c(c4)-c4c(O)cc(O)cc4C(C(=O)O)NC3=O)OC(CO)C(O)C2O)OC(C)C1O (stereo not shown) [RV94]
1870

* * *

assay: Single-dose nebulized nose-only inhalation PK in healthy rats; assay type: in vivo, rat; details: male, Sprague Dawley, rat, in vivo, inhaled or intranasal
For each of the compounds below, state its Kp.
One number for each entry.

CCCCCCCCCCCCCC(=O)OCCNC1(C)CC(OC2C(Oc3c4cc5cc3Oc3ccc(cc3Cl)C(O)C3NC(=O)C(NC(=O)C5NC(=O)C(CC(N)=O)NC(=O)C(NC(=O)C(CC(C)C)NC)C(O)c5ccc(c(Cl)c5)O4)c4ccc(O)c(c4)-c4c(O)cc(O)cc4C(C(=O)O)NC3=O)OC(CO)C(O)C2O)OC(C)C1O (stereo not drawn) [RV88] ... 1350
CCCCCCCCCCCC(=O)NCCNC1(C)CC(OC2C(Oc3c4cc5cc3Oc3ccc(cc3Cl)C(O)C3NC(=O)C(NC(=O)C5NC(=O)C(CC(N)=O)NC(=O)C(NC(=O)C(CC(C)C)NC)C(O)c5ccc(c(Cl)c5)O4)c4ccc(O)c(c4)-c4c(O)cc(O)cc4C(C(=O)O)NC3=O)OC(CO)C(O)C2O)OC(C)C1O (stereo not drawn) [RV62] ... 1550

Now look at this entry.
Tell me the measured Kp of CCCCCCCCCCNCCN[C@@]1(C)C[C@H](O[C@H]2[C@H](Oc3c4cc5cc3Oc3ccc(cc3Cl)[C@@H](O)[C@@H](NC(=O)[C@@H](CC(C)C)NC)C(=O)N[C@@H](CC(N)=O)C(=O)N[C@H]5C(=O)N[C@H]3C(=O)N[C@H](C(=O)N[C@H](C(=O)O)c5cc(O)cc(O)c5-c5cc3ccc5O)[C@H](O)c3ccc(c(Cl)c3)O4)O[C@H](CO)[C@@H](O)[C@@H]2O)O[C@@H](C)[C@H]1O [RV40, N-decylaminoethylvancomycin] , please.
690
